Readings of %Inh for the listed compounds
Tested on: MELK;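 further: KINOMEscan kinase panel screen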
condition: concentration: 1 μM, replicates: in singlicate; n = 1
Write the answer as a number in %, unit excluded.

| compound | quantitative.readout |
| --- | --- |
| COC(=O)c1cccc(NC(=O)NCCNc2ccnc(Nc3ccc(F)cc3)n2)c1 [GSK1379883] | 17 |

[Q] Reported %Inh for Nc1nccc2scc(-c3ccc4c(c3)CCN4C(=O)Cc3cc(F)ccc3F)c12 [GSK2587663] : what is it?
[A] 0

[Q] Reported %Inh for Fc1ccc(Nc2nccc(-c3c(-c4ccc(Cl)cc4)nn4ncccc34)n2)cc1F [GW829058] : what is it?
[A] 0

[Q] Reported %Inh for COc1ccc(Nc2nccc(N3CCC(NC(=O)Nc4ccc5c(c4)OCO5)C3)n2)cc1 (centres unmarked) [GSK1379745] : what is it?
[A] 0
